target: human FABP3 (Homo sapiens, UniProt P05413); construct: His-tag (N); TEV cleavage site (N); made in house; host or cells: E. coli BL21(DE3); experiment: ITC assay of ligand binding to apo-FABP3; conditions: KPi pH 7.6, 25 °C, with 0.1% TX
Sequence (P05413 whole entry): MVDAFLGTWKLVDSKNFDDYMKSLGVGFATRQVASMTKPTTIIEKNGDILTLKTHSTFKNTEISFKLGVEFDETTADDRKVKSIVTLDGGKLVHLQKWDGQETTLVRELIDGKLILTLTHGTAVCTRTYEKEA
property: −TΔS (kcal/mol)

Reference set, count: 2
compound | system | −TΔS / kcal/mol
CCCCCCCCCCCC(=O)O [C12:0, laurate] | human FABP3 (Homo sapiens, UniProt P05413) | 6.0
CCCCCCCCCC(=O)O [C10:0, caprate] | human FABP3 (Homo sapiens, UniProt P05413) | 4.7

1 = CCCCCCCC/C=C\CCCCCCCC(=O)O [C18:1(n-9)c, oleate]
2 = CCCCCCCCCCCCCCCC(=O)O [C16:0, palmitate]
3 = CCCCCCCC(=O)O [C8:0, caprylate]
Arrange by −TΔS, high to low. # list labels per requested ordering
3, 1, 2
(3: 4.5 kcal/mol, 1: 1.1 kcal/mol, 2: -0.6 kcal/mol)
